Target: Multidrug and toxin extrusion protein 2 (Homo sapiens)
Assay: Inhibition of human MATE2K-mediated ASP+ uptake expressed in HEK293 cells after 1.5 mins by fluorescence assay
Type: cell-based
Label YES when IC50 is strictly below 30 µM; otherwise label NO.

[
  {
    "COMPOUND": "CN1C[C@H](C(=O)N[C@]2(C)O[C@@]3(O)[C@@H]4CCCN4C(=O)[C@H](Cc4ccccc4)N3C2=O)C[C@@H]2c3cccc4[nH]cc(c34)C[C@H]21 [DIHYDROERGOTAMINE]",
    "LABEL": "YES"
  },
  {
    "COMPOUND": "C#C[C@]1(O)CC[C@H]2[C@@H]3CCc4cc(O)ccc4[C@H]3CC[C@@]21C",
    "LABEL": "YES"
  },
  {
    "COMPOUND": "COc1cc(C(=O)NS(=O)(=O)c2ccccc2C)ccc1Cc1cn(C)c2ccc(NC(=O)OC3CCCC3)cc12",
    "LABEL": "YES"
  },
  {
    "COMPOUND": "O=c1[nH]c2ccccc2n1C1CCN(CCCC(c2ccc(F)cc2)c2ccc(F)cc2)CC1 [PIMOZIDE]",
    "LABEL": "NO"
  },
  {
    "COMPOUND": "CC(=O)O[C@H]1C[C@@H]2CC[C@@H]3[C@H](CC[C@@]4(C)[C@H]3C[C@H]([N+]3(C)CCCCC3)[C@@H]4OC(C)=O)[C@@]2(C)C[C@@H]1N1CCCCC1.[Br-] [VECURONIUM BROMIDE]",
    "LABEL": "YES"
  },
  {
    "COMPOUND": "COc1cc2c3cc1Oc1cc(ccc1O)C[C@@H]1c4c(cc(OC)c(O)c4Oc4ccc(cc4)C[C@@H]3N(C)CC2)CC[N+]1(C)C",
    "LABEL": "NO"
  }
]

---

Assay: Cmax in human at 40 mg, po after 7 days
Type: ADME, organism-based
Set-up: dose 40 mg, route oral
Conditions: in vivo
PARAMETER MEASURED: Cmax (µM)

[
  {
    "COMPOUND": "COc1ccnc(C[S+]([O-])c2nc3ccc(OC(F)F)cc3[nH]2)c1OC (stereo unspecified)",
    "RESULT NUMBER": 5.45
  }
]

---

Biological target: Solute carrier family 22 member 3 (Homo sapiens, UniProt O75751)
Sequence (O75751 whole entry): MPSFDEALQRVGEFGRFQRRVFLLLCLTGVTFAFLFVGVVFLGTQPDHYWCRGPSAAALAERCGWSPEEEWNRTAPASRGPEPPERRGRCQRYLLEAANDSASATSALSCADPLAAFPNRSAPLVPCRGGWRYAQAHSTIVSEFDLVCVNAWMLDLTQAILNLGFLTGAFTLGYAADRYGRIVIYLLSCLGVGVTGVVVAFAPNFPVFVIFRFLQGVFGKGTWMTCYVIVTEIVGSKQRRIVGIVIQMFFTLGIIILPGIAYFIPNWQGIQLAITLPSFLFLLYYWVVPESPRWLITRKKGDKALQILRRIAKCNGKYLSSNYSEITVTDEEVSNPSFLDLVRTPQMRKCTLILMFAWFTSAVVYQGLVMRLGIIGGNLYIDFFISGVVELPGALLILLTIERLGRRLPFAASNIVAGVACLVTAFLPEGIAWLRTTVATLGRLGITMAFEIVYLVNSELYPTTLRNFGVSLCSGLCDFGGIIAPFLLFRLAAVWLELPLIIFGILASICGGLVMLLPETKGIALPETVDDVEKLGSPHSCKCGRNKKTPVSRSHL
Assay: Inhibition of human OCT3-mediated ASP+ uptake expressed in HEK293 cells after 3 mins by fluorescence assay
PARAMETER MEASURED: log10 of IC50 (log10 of the value in µM)

[
  {
    "COMPOUND": "Cc1nccn1CC1CCc2c(c3ccccc3n2C)C1=O (stereo not given)",
    "PARAMETER MEASURED": "log10 of IC50",
    "RESULT NUMBER": 1.24
  },
  {
    "COMPOUND": "N=C(N)c1ccc(OCCCCCOc2ccc(C(=N)N)cc2)cc1",
    "PARAMETER MEASURED": "log10 of IC50",
    "RESULT NUMBER": 0.98
  },
  {
    "COMPOUND": "NC(N)=Nc1nc(CSCCC(N)=NS(N)(=O)=O)cs1",
    "PARAMETER MEASURED": "log10 of IC50",
    "RESULT NUMBER": 1.03
  },
  {
    "COMPOUND": "COc1ccnc(C[S+]([O-])c2nc3ccc(OC(F)F)cc3[nH]2)c1OC (stereo not given)",
    "PARAMETER MEASURED": "log10 of IC50",
    "RESULT NUMBER": 2.14
  },
  {
    "COMPOUND": "Cn1c(NCCN(CCO)CCCc2ccc([N+](=O)[O-])cc2)cc(=O)n(C)c1=O",
    "PARAMETER MEASURED": "log10 of IC50",
    "RESULT NUMBER": 2.16
  }
]

---

Target: Multidrug and toxin extrusion protein 2 (Homo sapiens, UniProt Q86VL8)
Sequence (Q86VL8 whole entry): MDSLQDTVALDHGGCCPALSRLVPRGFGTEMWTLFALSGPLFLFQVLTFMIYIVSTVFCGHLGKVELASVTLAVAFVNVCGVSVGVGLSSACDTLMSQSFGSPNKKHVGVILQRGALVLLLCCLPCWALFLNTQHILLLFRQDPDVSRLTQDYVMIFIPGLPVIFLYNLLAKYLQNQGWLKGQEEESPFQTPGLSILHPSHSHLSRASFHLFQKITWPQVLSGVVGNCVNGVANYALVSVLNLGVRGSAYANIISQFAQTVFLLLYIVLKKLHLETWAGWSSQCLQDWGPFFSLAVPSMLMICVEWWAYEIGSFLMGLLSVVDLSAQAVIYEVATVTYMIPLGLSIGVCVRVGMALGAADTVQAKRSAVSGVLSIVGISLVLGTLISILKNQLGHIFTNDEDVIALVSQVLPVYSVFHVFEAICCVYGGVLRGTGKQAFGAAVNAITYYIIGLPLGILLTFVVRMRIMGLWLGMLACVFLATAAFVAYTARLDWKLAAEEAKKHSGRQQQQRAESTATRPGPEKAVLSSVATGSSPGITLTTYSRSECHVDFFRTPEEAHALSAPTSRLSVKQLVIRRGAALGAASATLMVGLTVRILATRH
Assay: Inhibition of human MATE2K-mediated ASP+ uptake expressed in HEK293 cells after 1.5 mins by fluorescence assay
Format: cell-based
pIC50: −log10 of the molar value.

[
  {
    "COMPOUND": "CN1C2CCCC1CC(NC(=O)c1nn(C)c3ccccc13)C2 (stereo not given)",
    "pIC50": 3.51
  },
  {
    "COMPOUND": "CC[C@@]1(O)C(=O)OCc2c1cc1n(c2=O)Cc2cc3c(CN(C)C)c(O)ccc3nc2-1",
    "pIC50": 5.07
  },
  {
    "COMPOUND": "CCOC(=O)c1ccc(OC(=O)CCCCCNC(=N)N)cc1 [GABEXATE]",
    "pIC50": 4.97
  },
  {
    "COMPOUND": "CC(N)C12CC3CC(CC(C3)C1)C2 (stereo not given)",
    "pIC50": 3.54
  },
  {
    "COMPOUND": "NC(N)=Nc1nc(CSCCC(N)=NS(N)(=O)=O)cs1",
    "pIC50": 4.44
  }
]

---

Molecular target: MATE1 (multidrug and toxin extrusion protein 1) (Homo sapiens, UniProt Q96FL8)
Sequence (Q96FL8 whole entry): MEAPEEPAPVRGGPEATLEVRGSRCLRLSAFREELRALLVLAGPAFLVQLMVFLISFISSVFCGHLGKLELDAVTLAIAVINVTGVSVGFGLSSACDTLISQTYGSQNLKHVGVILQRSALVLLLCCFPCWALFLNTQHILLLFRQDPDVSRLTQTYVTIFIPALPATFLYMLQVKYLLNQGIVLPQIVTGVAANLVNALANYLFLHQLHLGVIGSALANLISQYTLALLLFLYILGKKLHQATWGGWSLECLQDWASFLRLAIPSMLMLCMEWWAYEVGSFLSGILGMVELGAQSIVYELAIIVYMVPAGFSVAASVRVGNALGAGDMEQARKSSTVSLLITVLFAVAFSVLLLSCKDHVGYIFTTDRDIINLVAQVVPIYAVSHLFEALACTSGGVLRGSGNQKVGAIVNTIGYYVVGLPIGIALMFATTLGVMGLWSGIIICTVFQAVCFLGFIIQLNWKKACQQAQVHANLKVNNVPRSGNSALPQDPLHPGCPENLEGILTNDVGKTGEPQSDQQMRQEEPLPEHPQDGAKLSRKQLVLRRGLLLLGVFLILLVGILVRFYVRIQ
Assay: Inhibition of human MATE1-mediated ASP+ uptake expressed in HEK293 cells at 20 uM after 1.5 mins by fluorescence assay
Assay type: cell-based
Conditions: HEK293 cells expressing human MATE1, probe ASP+

[
  {
    "COMPOUND STRUCTURE STRING": "COc1ccc(CCN2CCC(Nc3nc4ccccc4n3Cc3ccc(F)cc3)CC2)cc1",
    "TEST SYSTEM": "MATE1 (multidrug and toxin extrusion protein 1) (Homo sapiens, UniProt Q96FL8)",
    "RESULT UNIT": "%",
    "inhibition at […], 20 µM": 34
  },
  {
    "COMPOUND STRUCTURE STRING": "CCCCC1=NC2(CCCC2)C(=O)N1Cc1ccc(-c2ccccc2-c2nnn[nH]2)cc1",
    "TEST SYSTEM": "MATE1 (multidrug and toxin extrusion protein 1) (Homo sapiens, UniProt Q96FL8)",
    "RESULT UNIT": "%",
    "inhibition at […], 20 µM": 15
  },
  {
    "COMPOUND STRUCTURE STRING": "CC(=O)S[C@@H]1CC2=CC(=O)CC[C@]2(C)[C@H]2CC[C@@]3(C)[C@@H](CC[C@@]34CCC(=O)O4)[C@H]12",
    "TEST SYSTEM": "MATE1 (multidrug and toxin extrusion protein 1) (Homo sapiens, UniProt Q96FL8)",
    "RESULT UNIT": "%",
    "inhibition at […], 20 µM": 27
  },
  {
    "COMPOUND STRUCTURE STRING": "C[C@@H]1C[C@H]2[C@@H]3CCC4=CC(=O)C=C[C@]4(C)[C@@]3(F)[C@@H](O)C[C@]2(C)[C@@]1(O)C(=O)CO",
    "TEST SYSTEM": "MATE1 (multidrug and toxin extrusion protein 1) (Homo sapiens, UniProt Q96FL8)",
    "RESULT UNIT": "%",
    "inhibition at […], 20 µM": 30
  }
]
